Recorded IC50 values (TANK binding kinase (TBK1) (Homo sapiens, UniProt Q9UHD2)) are given below.
QUANTITY_KIND: IC50

- N#Cc1cc(-c2c[nH]c3ncc(-c4cnn(C5COC5)c4)cc23)ccc1OC1COC1: < 300 nM
- N#Cc1cc(-c2c[nH]c3ncc(-c4cn(C5CCNCC5)nn4)cc23)ccc1OC1CCOCC1: < 300 nM
- COc1ccc2c(-c3ccc(OC4CCOCC4)c(C#N)c3)c[nH]c2n1: 3000 to 50000 nM
- COc1ccnc2[nH]cc(-c3ccc(OC4CCOCC4)c(C#N)c3)c12: 300 to 3000 nM
- N#Cc1cc(-c2c[nH]c3ncc(-c4cnn(CCN5CCCC5)c4)cc23)ccc1OC1CCOCC1: < 300 nM
- N#Cc1cc(-c2c[nH]c3ncc(-c4cnn(CCN5CCOCC5)c4)cc23)ccc1OC1CCOCC1: < 300 nM
- N#Cc1cc(-c2c[nH]c3ncc(OCCN4CCOCC4)cc23)ccc1OC1CCOCC1: < 300 nM
- N#Cc1cc(-c2c[nH]c3ncc(-c4cnn(CCO)c4)cc23)ccc1OC1CCOCC1: < 300 nM
- CN1CCC(Oc2ccc(-c3c[nH]c4ncc(-c5cnn(C)c5)cc34)cc2C#N)CC1: < 300 nM
- N#Cc1cc(-c2c[nH]c3ncc(Br)cc23)ccc1OCC1CC1: 3000 to 50000 nM
- CC1(COc2ccc(-c3c[nH]c4ncc(-c5cnn(C6CCNCC6)c5)cc34)cc2C#N)COC1: < 300 nM
- Cc1[nH]c2ncc(-c3cnn(C)c3)cc2c1-c1ccc(OC2CCOCC2)c(C#N)c1: < 300 nM
- N#Cc1cc(-c2c[nH]c3ncc(-c4cnn(CCN5CCCC5)c4)cc23)cnc1OC1CCOCC1: < 300 nM
- Cn1cc(-c2cnc3[nH]cc(-c4ccc(OC5COC5)c(C#N)c4)c3c2)cn1: < 300 nM
- N#Cc1cc(-c2c[nH]c3ncccc23)ccc1OC1CCOCC1: < 300 nM
- N#Cc1cc(-c2c[nH]c3ncc(-c4cnn(C5CCN(S(=O)(=O)c6ccccc6)CC5)c4)cc23)cnc1OC1CCOCC1: 300 to 3000 nM
- N#Cc1cc(-c2c[nH]c3ncc(-c4cnn(C5COC5)c4)cc23)cnc1OC1CCOCC1: < 300 nM

====

Below: a set of entries, each annotated with reported pIC50.
Protein target, amino acids: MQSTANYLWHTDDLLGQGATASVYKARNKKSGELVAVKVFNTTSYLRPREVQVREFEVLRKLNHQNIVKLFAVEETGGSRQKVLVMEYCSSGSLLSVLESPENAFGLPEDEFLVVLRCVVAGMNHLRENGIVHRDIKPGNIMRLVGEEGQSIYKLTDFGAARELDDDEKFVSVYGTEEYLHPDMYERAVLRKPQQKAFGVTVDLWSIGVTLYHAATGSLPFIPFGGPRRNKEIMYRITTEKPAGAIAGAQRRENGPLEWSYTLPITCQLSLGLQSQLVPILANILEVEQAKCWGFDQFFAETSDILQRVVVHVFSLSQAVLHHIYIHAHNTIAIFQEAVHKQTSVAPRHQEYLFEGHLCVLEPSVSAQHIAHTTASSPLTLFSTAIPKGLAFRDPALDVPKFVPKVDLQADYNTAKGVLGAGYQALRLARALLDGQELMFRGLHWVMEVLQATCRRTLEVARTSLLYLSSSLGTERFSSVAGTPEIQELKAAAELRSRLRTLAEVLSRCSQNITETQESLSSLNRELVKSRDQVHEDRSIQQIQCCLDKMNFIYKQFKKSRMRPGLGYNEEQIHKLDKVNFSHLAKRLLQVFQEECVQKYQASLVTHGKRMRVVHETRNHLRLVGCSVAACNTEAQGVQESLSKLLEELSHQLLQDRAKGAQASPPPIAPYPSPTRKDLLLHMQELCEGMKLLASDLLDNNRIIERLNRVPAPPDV
pIC50: −log10 of the molar value.
QUANTITY_KIND: pIC50

- CN1CCC(n2cc(-c3cnc4[nH]cc(-c5ccc(OC6CCOCC6)c(C#N)c5)c4c3)nn2)CC1: > 6.52
- N#Cc1cc(-c2c[nH]c3ncc(Br)cc23)ccc1OC1CCOCC1: 4.30 to 5.52
- CN1CCN(c2cnc3[nH]cc(-c4ccc(OC5CCOCC5)c(C#N)c4)c3c2)CC1: 5.52 to 6.52
- N#Cc1ccc(-c2cnc3[nH]cc(-c4ccc(OC5CCOCC5)c(C#N)c4)c3c2)cc1: 5.52 to 6.52
- N#Cc1cc(-c2c[nH]c3ncc(-c4ccc(N5CCOCC5)cc4)cc23)ccc1OC1CCOCC1: > 6.52
- COCCn1cc(-c2cnc3[nH]cc(-c4ccc(OC5CCOCC5)c(C#N)c4)c3c2)cn1: > 6.52
- N#Cc1cc(-c2c[nH]c3ncc(-c4cnn(C5COC5)c4)cc23)ccc1OC1CCOCC1: > 6.52
- Cn1cc(-c2cnc3[nH]cc(-c4ccc(OC5CCOCC5)c(C#N)c4)c3c2)cn1: > 6.52
